SYSTEM TESTED: Histamine H1 receptor (Rattus norvegicus, UniProt P31390)
Sequence (P31390 whole entry): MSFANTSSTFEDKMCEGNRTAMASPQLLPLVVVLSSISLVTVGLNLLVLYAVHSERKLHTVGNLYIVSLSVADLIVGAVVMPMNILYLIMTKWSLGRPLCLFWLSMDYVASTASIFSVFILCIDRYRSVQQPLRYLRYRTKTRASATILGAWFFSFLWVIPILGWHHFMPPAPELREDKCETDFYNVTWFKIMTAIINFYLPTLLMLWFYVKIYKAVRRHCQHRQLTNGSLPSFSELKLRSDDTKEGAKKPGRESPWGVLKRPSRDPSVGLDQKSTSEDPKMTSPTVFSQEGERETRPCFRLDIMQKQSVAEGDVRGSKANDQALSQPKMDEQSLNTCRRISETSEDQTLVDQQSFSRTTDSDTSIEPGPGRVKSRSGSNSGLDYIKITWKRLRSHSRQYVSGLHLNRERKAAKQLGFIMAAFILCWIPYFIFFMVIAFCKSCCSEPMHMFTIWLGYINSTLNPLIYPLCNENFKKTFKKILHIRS
ASSAY COMMENT: The compound was tested for binding affinity against H1 receptor
QUANTITY NAME: Ki

Requested field: Ki. Item: COc1ccccc1N1CCC(CNCC2COc3ccc(Cl)cc3O2)CC1 (stereo unspecified)
> 1000 nM

* * *

SYSTEM TESTED: Adrenergic receptor alpha-1 (Homo sapiens, UniProt P35348+P25100+P35368)
ASSAY COMMENT: Binding affinity towards Alpha-1 adrenergic receptor in human cortex membranes
Assay type: cell membranes
Kindly note that classification relies on Ki with these boundaries: low value: < 20 nM; medium value: ≥ 20 nM and < 90 nM; high value: ≥ 90 nM

COc1ccccc1N1CCC(CNCC2COc3cccc(F)c3O2)CC1 (stereo not given) = low value
c1ccc2c(c1)OCC(CNCC1CCN(c3cccc4c3OCCO4)CC1)O2 (stereo not given) = medium value

For this compound, which bin applies? COc1ccc(N2CCC(CNCC3COc4ccccc4O3)CC2)cc1 (stereo not given)
medium value

For this compound, which bin applies? c1ccc2c(c1)OCC(CNCC1CCN(c3cccc4c3OCC4)CC1)O2 (stereo not given)
medium value

* * *

SYSTEM TESTED: D(2) dopamine receptor (Homo sapiens, UniProt P14416)
Sequence (P14416 whole entry): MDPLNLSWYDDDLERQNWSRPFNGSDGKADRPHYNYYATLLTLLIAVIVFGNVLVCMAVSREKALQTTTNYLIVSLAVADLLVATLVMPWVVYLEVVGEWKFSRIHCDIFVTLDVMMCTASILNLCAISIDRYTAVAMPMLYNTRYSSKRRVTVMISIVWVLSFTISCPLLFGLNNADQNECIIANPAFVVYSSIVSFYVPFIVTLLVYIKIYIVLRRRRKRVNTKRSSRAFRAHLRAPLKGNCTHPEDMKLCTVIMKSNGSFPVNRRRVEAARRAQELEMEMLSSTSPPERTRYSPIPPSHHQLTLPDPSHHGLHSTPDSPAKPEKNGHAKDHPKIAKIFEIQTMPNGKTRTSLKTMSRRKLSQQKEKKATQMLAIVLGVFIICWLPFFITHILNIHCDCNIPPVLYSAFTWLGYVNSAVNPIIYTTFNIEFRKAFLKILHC
QUANTITY NAME: pKi
Remember the convention: pKi equals -log10 of concentration in molar.

Value wanted: pKi (D(2) dopamine receptor (Homo sapiens, UniProt P14416)) of entry COc1ccccc1N1CCC(CNCC2COc3ccc(Cl)cc3O2)CC1 (stereo unspecified)
7.88

* * *

# Lookup of reported inhibition keyed by entry
SYSTEM TESTED: 5-hydroxytryptamine receptor 1A (Rattus norvegicus) (UniProt P19327)
Sequence (whole entry): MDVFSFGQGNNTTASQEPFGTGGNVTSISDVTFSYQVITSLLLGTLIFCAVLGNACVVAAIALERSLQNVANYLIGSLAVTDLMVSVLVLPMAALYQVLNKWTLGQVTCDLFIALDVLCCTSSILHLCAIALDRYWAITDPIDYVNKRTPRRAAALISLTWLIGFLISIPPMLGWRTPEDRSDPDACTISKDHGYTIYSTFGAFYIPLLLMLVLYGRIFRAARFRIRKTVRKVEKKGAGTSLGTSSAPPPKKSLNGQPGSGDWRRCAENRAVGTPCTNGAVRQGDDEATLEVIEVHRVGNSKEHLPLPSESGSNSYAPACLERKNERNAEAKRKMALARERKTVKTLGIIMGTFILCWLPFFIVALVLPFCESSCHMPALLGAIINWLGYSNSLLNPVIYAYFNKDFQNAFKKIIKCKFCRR
ASSAY COMMENT: The compound was tested binding affinity against 5-hydroxytryptamine 1A receptor from rat brain using [3H]8-OH-DPAT as radioligand at 10e-6 M.
Quick note: give the figure in %, leave out the unit.

c1ccc(N2CCC(CNCC3COc4ccccc4O3)CC2)nc1 (stereo in doubt; 13) = 82
CN(CC1CCN(c2ncccn2)CC1)CC1COc2ccccc2O1 (centres undefined) = 85
c1ccc(N2CCC(CNCC3COc4ccccc4O3)CC2)nc1 (stereo in doubt; 12) = 98

Please look at the following compound next.
Value wanted: inhibition (5-hydroxytryptamine receptor 1A (Rattus norvegicus) (UniProt P19327)) of entry COc1ccccc1N1CCC(CNCC2COc3cccc(O)c3O2)CC1 (centres undefined)
94

* * *

SYSTEM TESTED: D(1B) dopamine receptor (Homo sapiens, UniProt P21918)
Sequence (P21918 whole entry): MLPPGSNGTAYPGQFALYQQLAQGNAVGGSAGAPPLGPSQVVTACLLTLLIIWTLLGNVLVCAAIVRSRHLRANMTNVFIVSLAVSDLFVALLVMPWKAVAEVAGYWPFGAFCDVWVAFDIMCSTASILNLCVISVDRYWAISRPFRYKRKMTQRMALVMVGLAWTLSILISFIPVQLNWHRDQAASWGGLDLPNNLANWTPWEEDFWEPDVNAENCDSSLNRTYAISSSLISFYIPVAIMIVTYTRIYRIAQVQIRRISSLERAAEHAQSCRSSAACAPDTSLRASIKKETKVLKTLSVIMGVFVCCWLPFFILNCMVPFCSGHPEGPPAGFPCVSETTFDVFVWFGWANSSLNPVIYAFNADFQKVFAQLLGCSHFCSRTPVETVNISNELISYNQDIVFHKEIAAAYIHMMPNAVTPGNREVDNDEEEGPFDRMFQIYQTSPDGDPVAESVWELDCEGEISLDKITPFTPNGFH
QUANTITY NAME: Ki

Value wanted: Ki (D(1B) dopamine receptor (Homo sapiens, UniProt P21918)) of entry COc1ccccc1N1CCC(CNCC2COc3ccc(Cl)cc3O2)CC1 (stereo unspecified)
> 1 µM

* * *

SYSTEM TESTED: D(1A) dopamine receptor (Homo sapiens, UniProt P21728)
Sequence (P21728 whole entry): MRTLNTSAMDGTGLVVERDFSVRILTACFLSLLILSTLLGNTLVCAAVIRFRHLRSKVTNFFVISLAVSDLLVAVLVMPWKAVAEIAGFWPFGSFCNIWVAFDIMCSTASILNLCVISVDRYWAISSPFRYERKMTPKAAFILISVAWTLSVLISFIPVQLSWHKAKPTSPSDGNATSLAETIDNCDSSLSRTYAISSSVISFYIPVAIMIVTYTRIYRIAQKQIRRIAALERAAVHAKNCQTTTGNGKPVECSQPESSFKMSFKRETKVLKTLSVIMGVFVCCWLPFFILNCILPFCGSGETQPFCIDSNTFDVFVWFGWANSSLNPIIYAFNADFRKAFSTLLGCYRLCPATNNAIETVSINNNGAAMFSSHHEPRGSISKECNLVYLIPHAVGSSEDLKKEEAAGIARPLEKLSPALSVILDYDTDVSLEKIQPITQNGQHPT
ASSAY COMMENT: The compound was tested for binding affinity against human Dopamine receptor D1
pKi: −log10 of the molar value.
QUANTITY NAME: pKi

Value wanted: pKi (D(1A) dopamine receptor (Homo sapiens, UniProt P21728)) of entry COc1ccccc1N1CCC(CNCC2COc3ccc(Cl)cc3O2)CC1 (stereo unspecified)
< 6.00

* * *

SYSTEM TESTED: Alpha-2A adrenergic receptor (Rattus norvegicus)
Sequence (P22909 whole entry): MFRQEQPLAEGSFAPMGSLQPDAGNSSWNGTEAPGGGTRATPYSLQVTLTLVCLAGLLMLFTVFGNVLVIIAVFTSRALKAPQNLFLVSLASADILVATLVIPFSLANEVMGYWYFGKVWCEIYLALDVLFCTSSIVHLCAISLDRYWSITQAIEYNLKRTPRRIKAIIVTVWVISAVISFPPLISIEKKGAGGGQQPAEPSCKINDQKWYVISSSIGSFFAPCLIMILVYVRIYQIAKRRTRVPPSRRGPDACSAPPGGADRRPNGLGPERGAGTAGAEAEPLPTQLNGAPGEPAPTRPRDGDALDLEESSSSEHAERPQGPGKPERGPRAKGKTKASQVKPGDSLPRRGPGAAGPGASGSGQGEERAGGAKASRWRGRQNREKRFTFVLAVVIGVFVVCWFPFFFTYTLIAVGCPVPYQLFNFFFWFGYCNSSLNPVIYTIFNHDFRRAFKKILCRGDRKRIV
pKi: −log10 of the molar value.
QUANTITY NAME: pKi

Requested field: pKi. Item: COc1ccccc1N1CCC(CNCC2COc3ccc(Cl)cc3O2)CC1 (stereo unspecified)
< 6.30

* * *

SYSTEM TESTED: 5-hydroxytryptamine receptor 1A (Rattus norvegicus, UniProt P19327)
Sequence (P19327 whole entry): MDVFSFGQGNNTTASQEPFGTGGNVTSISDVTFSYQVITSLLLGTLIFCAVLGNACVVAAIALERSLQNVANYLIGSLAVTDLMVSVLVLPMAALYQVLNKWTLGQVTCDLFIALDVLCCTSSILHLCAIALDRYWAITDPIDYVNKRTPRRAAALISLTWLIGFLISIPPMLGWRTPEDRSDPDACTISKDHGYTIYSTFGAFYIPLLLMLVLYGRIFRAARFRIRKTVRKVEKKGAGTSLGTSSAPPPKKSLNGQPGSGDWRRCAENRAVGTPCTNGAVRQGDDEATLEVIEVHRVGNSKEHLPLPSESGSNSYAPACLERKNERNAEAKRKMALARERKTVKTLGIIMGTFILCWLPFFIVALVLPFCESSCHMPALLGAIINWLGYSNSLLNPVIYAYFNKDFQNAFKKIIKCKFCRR
QUANTITY NAME: log10 Ki (log10 of the value in nM)
Hi team, quick reminder: these entries are log10 of Ki (nM).

Worked cases, log10 Ki given:
c1ccc2c(c1)OCC(CNCC1CCN(c3cccc4c3OCC4)CC1)O2 (stereo not drawn) = 0.48
COc1ccccc1N1CCC(CNCC2COc3ccc(Cl)cc3O2)CC1 (stereo not drawn) = 1.34
c1cnc(NCC2CCN(CC3COc4ccccc4O3)CC2)nc1 (stereo in doubt; 8) = 1.32
COc1ccccc1N1CCC(CNC[C@H]2COc3ccccc3O2)CC1 = 0.90
c1cnc(NCC2CCN(CC3COc4ccccc4O3)CC2)nc1 (stereo in doubt; 9) = 2.67

Requested field: log10 Ki. Item: COc1ccccc1NCC1CCN(CC2COc3ccccc3O2)CC1 (stereo not drawn)
1.30

Requested field: log10 Ki. Item: COc1cccc2c1OC(CNCC1CCN(c3ncccn3)CC1)CO2 (stereo not drawn)
-0.22

* * *

# Lookup of reported ED50 keyed by entry
Test system: Mus musculus
ASSAY COMMENT: Antagonistic activity against apomorphine induced climbing in the mouse after po administration
Type: functional
Quick note: give the figure in mg/kg, leave out the unit.

Worked cases, ED50 given:
c1ccc2c(c1)OCC(CNCC1CCN(c3cccc4c3OCCO4)CC1)O2 (stereo not given) = 32
COc1ccccc1N1CCC(CNC[C@H]2COc3ccccc3O2)CC1 = 7
c1ccc(N2CCC(CNCC3COc4ccccc4O3)CC2)cc1 (stereo not given) = 39

Requested field: ED50. Item: c1ccc2c(c1)OCC(CNCC1CCN(c3cccc4c3OCC4)CC1)O2 (stereo not given)
18

Requested field: ED50. Item: COc1ccccc1N1CCC(CNC[C@@H]2COc3ccccc3O2)CC1
38

* * *

# Lookup of reported ED50 keyed by entry
System: Mus musculus
ASSAY COMMENT: Antagonistic activity against apomorphine induced climbing in the mouse after po administration
Type: functional
Quick note: give the figure in mg/kg, leave out the unit.

COc1ccc(N2CCC(CNCC3COc4ccccc4O3)CC2)cc1 (stereo unspecified) = 11
c1cnc(N2CCC(CNC[C@H]3COc4ccccc4O3)CC2)nc1 = 9
COc1ccccc1N1CCC(CNCC2COc3cccc(O)c3O2)CC1 (stereo unspecified) = 33

Requested field: ED50. Item: COc1cccc2c1OC(CNCC1CCN(c3ncccn3)CC1)CO2 (stereo unspecified)
2.4

Requested field: ED50. Item: COc1ccccc1N1CCC(CNCC2COc3ccc(Cl)cc3O2)CC1 (stereo unspecified)
5

Requested field: ED50. Item: c1ccc(N2CCC(CNCC3COc4ccccc4O3)CC2)nc1 (stereo in doubt; 12)
23

Requested field: ED50. Item: COc1ccccc1N1CCC(CNCC2COc3cccc(F)c3O2)CC1 (stereo unspecified)
4

Requested field: ED50. Item: c1cnc(NCCCNCC2COc3ccccc3O2)nc1 (stereo unspecified)
6

Requested field: ED50. Item: Cc1cc2c(s1)Nc1ccccc1N=C2N1CCN(C)CC1
4.87

Requested field: ED50. Item: COc1ccccc1NCC1CCN(CC2COc3ccccc3O2)CC1 (stereo unspecified)
62

Requested field: ED50. Item: CC1Oc2ccccc2OC1CNCC1CCN(c2ncccn2)CC1 (stereo unspecified)
134

* * *

SYSTEM TESTED: 5-hydroxytryptamine receptor 1A (Homo sapiens, UniProt P08908)
Sequence (P08908 whole entry): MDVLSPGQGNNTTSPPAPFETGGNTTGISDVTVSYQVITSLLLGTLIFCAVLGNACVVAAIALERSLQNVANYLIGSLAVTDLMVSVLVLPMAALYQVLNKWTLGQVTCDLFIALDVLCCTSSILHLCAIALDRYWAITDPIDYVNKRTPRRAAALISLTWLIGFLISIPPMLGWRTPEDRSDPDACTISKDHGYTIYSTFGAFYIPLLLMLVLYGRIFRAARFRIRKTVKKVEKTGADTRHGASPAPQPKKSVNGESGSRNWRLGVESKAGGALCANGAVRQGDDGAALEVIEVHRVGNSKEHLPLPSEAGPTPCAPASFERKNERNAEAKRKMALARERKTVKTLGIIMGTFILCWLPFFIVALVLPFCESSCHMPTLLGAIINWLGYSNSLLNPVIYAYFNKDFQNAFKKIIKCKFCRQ
QUANTITY NAME: pKi
Remember the convention: pKi equals -log10 of concentration in molar.

Requested field: pKi. Item: COc1ccccc1N1CCC(CNCC2COc3ccc(Cl)cc3O2)CC1 (stereo unspecified)
8.44
